# MEASUREMENT TARGET: HIV-1 integrase (Human immunodeficiency virus type 1 group M subtype B, UniProt P04585)
# ASSAY METHOD TEXT: HIV-1 integrase inhibition assay (radiolabeled duplex substrate corresponding to the U5 end of the HIV LTR)
# Assay type: biochemical
MEASUREMENT LABEL: log10 IC50 (log10 of the value in nM)
Transform log10 | Measure IC50 | Unit nM

// below: answered compounds
[
  {
    "COMPOUND": "O=C(N[C@@H](Cc1cn(-c2ccc([N+](=O)[O-])cc2[N+](=O)[O-])cn1)C(=O)NCc1ccc(O)c(O)c1)c1ccc(O)c(O)c1 [Example 23]",
    "log10 IC50": 2.42
  },
  {
    "COMPOUND": "O=C(C[C@H](NC(=O)c1cc(O)c2cccc(O)c2n1)C(=O)NCCc1ccc(O)c(O)c1)NC(c1ccccc1)(c1ccccc1)c1ccccc1 [Example 64]",
    "log10 IC50": 3.85
  }
]

Look up log10 IC50 for this compound: Cc1ccc(C(NC(=O)CC[C@H](NC(=O)/C=C/c2ccc(O)c(O)c2)C(=O)NCCc2ccc(O)c(O)c2)(c2ccccc2)c2ccccc2)cc1 [Example 48] 3.06

log10 IC50 lookup needed for CC(C)(C)OC[C@H](NC(=O)c1cc(O)c(O)c(O)c1)C(=O)NCCc1ccc(O)c(O)c1 [Example 43] , thanks. 2.18

Item CC(C)(C)OC[C@H](NC(=O)c1cc2ccccc2n1Cc1ccc(F)cc1)C(=O)NCCc1ccc(O)c(O)c1 [Example 95] has what recorded log10 IC50? 3.85

# query: log10 IC50 of entry COc1ccc(NC(=O)[C@H](CCC(=O)NC(c2ccccc2)(c2ccccc2)c2ccccc2)NC(=O)/C=C/c2ccc(OCc3ccc(F)cc3)c(OCc3ccc(F)cc3)c2)cc1O [Example 112] 3.30

Field request: log10 IC50 | item: O=C(NCCCC[C@H](NC(=O)c1cc2cccc(O)c2cc1O)C(=O)NO)c1cc2cccc(O)c2cc1O [Example 56] 3.72

Record request: log10 IC50 value, item CC(C)(C)OC(=O)NCCC[C@H](NC(=O)c1cc(O)c(O)c(O)c1)C(=O)NCCc1ccc(O)c(O)c1 [Example 54] 2.57

Quick one: log10 IC50 of Cc1ccc(C(NC(=O)CC[C@H](NC(=O)c2cc(O)c3cccc(O)c3n2)C(=O)NCc2ccc(O)c(O)c2)(c2ccccc2)c2ccccc2)cc1 [Example 69] ? 2.54

====

# MEASUREMENT TARGET: HIV-1 integrase (Human immunodeficiency virus type 1 group M subtype B)
# ASSAY METHOD TEXT: HIV-1 integrase inhibition assay (radiolabeled duplex substrate corresponding to the U5 end of the HIV LTR)
# Assay type: biochemical
pIC50 by entry:
// returns pIC50 (minus log10 of molar concentration), number only

Write down the reported pIC50 of O=C(N[C@H](Cc1cn(C(c2ccccc2)(c2ccccc2)c2ccccc2)cn1)C(=O)NCCc1ccc(O)c(O)c1)c1ccc(O)c(O)c1 [Example 16] , test system: HIV-1 integrase (Human immunodeficiency virus type 1 group M subtype B). 6.81

Find pIC50 (HIV-1 integrase (Human immunodeficiency virus type 1 group M subtype B)) for the entry CC(C)(C)OC[C@H](NC(=O)c1ccc(OCc2ccc(F)cc2)c(OCc2ccc(F)cc2)c1)C(=O)NCCc1ccc(O)c(O)c1 [Example 97] 5.54

Give pIC50 (HIV-1 integrase (Human immunodeficiency virus type 1 group M subtype B)) of the following compound: COc1ccc(OC)c(NC(=O)[C@H](CCC(=O)NC(c2ccccc2)(c2ccccc2)c2ccccc2)NC(=O)c2cc(O)c3cccc(O)c3n2)c1 [Example 85] 5.59

Please tell me: pIC50 of CC(C)(C)OC[C@H](NC(=O)/C=C/c1ccc(O)c(O)c1)C(=O)NCCc1ccc(O)c(O)c1 [Example 42] , system HIV-1 integrase (Human immunodeficiency virus type 1 group M subtype B)? 6.35

Provide the documented pIC50 with HIV-1 integrase (Human immunodeficiency virus type 1 group M subtype B) as the system for O=C(C=Cc1ccc([N+](=O)[O-])cc1)NC(Cc1cn(C(c2ccccc2)(c2ccccc2)c2ccccc2)cn1)C(=O)NCCc1ccc(O)c(O)c1 (stereo not drawn) [Example 41] 5.94

Write down the reported pIC50 of O=C(/C=C/c1ccc(O)c(O)c1)NCCCC[C@H](NC(=O)/C=C/c1ccc(O)c(O)c1)C(=O)NCCc1ccc(O)c(O)c1 [Example 5, N-(Nα,Nε-Dicaffeoyl-L-lysyl)dopamine] , test system: HIV-1 integrase (Human immunodeficiency virus type 1 group M subtype B). 6.29
